B1: HDV Ribozyme (parent)
chain: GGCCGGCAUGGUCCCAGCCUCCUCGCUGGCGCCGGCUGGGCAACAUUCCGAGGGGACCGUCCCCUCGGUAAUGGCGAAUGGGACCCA

Variants of: B1
measurement_notes: self-cleavage, relative activity (ratio to wild type); higher = more cleavage; co-transcriptional
endpoint: self-cleavage
Answer using only a numeral; do not append any unit.

Previously resolved entries follow.
[
  {
    "residues": "GGCCGGCAUGGUCCCAGCCUCCUCGAUGGCGCCGGCUGGGCAACAUUCCGAGGGGACCGUCCCCUCGGUAAUGCCGAAUGGGACCCA",
    "self-cleavage": 0.237
  },
  {
    "residues": "GGCGGGCAUGGUCCCAGCCUCCUCGCUGGCGCCGGCUGGGCAACAUUCCGAGGGGACCGUCCCCUCGGUAAUCGCGAAUGGGACCCA",
    "self-cleavage": 0.0361
  },
  {
    "residues": "GGCCGGCAUGCUCCCAGCCUCCUCGAUGGCGCCGGCUGGGCAACAUUCCGAGGGGACCGUCCCCUCGGUAAUGGCGAAUGGGACCCA",
    "self-cleavage": 0.462
  }
]

Then there is this variant:
Problem: Check the records and state self-cleavage for GGCCGGCAUGGUCCCAGCCUCCUCGCUGGCGCCGGCUGGGCAACAUUCCGAGGGGACCGUCCCCUCGGUAGUGGCGAAUGGGCCCCA
Result: 0.415
